assay: Leishmania major promastigote growth inhibition, primary screen (AID 1063); details: Leishmania major promastigotes, resazurin fluorescence viability; at 10 µM; stronger effect = higher value;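 further: promastigotes grown with compound for 44 hours at 28 °C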
The campaign covered roughly 200,000 compounds. About 18,000 (9%) were called active. The sample as a whole holds a higher share of actives than the screen did.

# compound, inhibition / %
measured = [
    ("O=C(Cc1cccc2ccccc12)Nc1ccc2oc(-c3ccccc3)nc2c1", 40.6),
    ("CCOC(=O)Cn1c(=O)oc2cc(S(=O)(=O)NCC3CCCO3)ccc21 (stereo not given)", -5.87),
    ("O=C(NCc1ccco1)C1CCCN(S(=O)(=O)c2ccccc2)C1 (stereo not given)", -0.05),
    ("Cc1cccc(C)c1NC(=O)CSc1nnc(-c2ccccc2)n1Cc1ccc2c(c1)OCO2", 53.4),
    ("CN(C)c1ccc(C=NCCc2ccc(S(N)(=O)=O)cc2)cc1", 3.91),
    ("Cc1ccc(C(C(=O)NC2CCCC2)N(Cc2ccco2)C(=O)CCC(=O)Nc2ccccn2)cc1 (stereo not given)", -1.72),
    ("COc1ccc(S(=O)(=O)N2CCCCC2)cc1Br", -0.43),
    ("Cc1onc(C(=O)NCc2ccc(F)cc2)c1[N+](=O)[O-]", -5.34),
    ("CCOC(=O)Cc1csc(NC(=O)COc2ccc3c(C)cc(=O)oc3c2)n1", 13.5),
    ("Cc1cc(=O)[nH]c(N/N=C/c2c(C)nn(-c3ccccc3Cl)c2Cl)n1", -2.53),
    ("O=C1COc2ccc(C(=O)COC(=O)C3CC(O)CN3S(=O)(=O)c3ccc(Cl)cc3)cc2N1 (stereo not given)", -7.23),
    ("CC1(C)CC(CC(=O)O)C(=O)O1 (stereo not given)", -2.75),
    ("COc1cc(/C=N\\Nc2ccc([N+](=O)[O-])cn2)ccc1OCC(=O)O", 4.37),
    ("CC1(C)CC(CCC(=O)Nc2ccccc2Cl)C(=O)O1 (stereo not given)", -7.36),
    ("COc1cc(C(=O)OCc2ccc([N+](=O)[O-])cc2)cc(OC)c1OC", -8.98),
    ("COC(=O)/C(=C1\\Oc2ccc(C(C)(C)C)cc2S1)C(F)(F)F", -4.31),
    ("C/C(CC1CC(C)(C)OC1=O)=N/Nc1nc(-c2ccccc2)cs1 (stereo not given)", 55.5),
    ("Cc1ccc2c(c1)N(CC(=O)N(Cc1ccccn1)Cc1ccco1)C(=O)C(C(C)C)O2 (stereo not given)", 75.7),
    ("COc1cc(CN2CCNC(=O)C2CC(=O)NCCc2ncccc2C)cc(OC)c1 (stereo not given)", -4.29),
    ("CCOC(=O)C1=NOC(Cn2cc(C(C)=O)c(=O)[nH]c2=O)C1 (stereo not given)", 1.88),
]

----------
# inhibition listing for each entry below
experiment: Leishmania major promastigote growth inhibition, primary screen (AID 1063); settings: Leishmania major promastigotes, resazurin fluorescence viability; at 10 µM; stronger effect = higher value;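 further: promastigotes grown with compound for 44 hours at 28 °C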
The whole screen tested about 200,000 compounds, of which about 18,000 (9%) were called active. The sample holds actives, similar compounds and a random draw of the others, so the mix is not that of the screen.

# compound, inhibition [%]
data = [
    ("Fc1ccc(CNCc2ccc(Br)cc2)cc1", 84.8),
    ("O=C(NCCc1ccccc1)/C(=C\\c1ccc([N+](=O)[O-])cc1)NC(=O)c1ccccc1", -2.32),
    ("CCn1c(COc2ccccc2)nnc1SCC(=O)Nc1ccc2c(c1)OCCO2", -3.59),
    ("CCO[C@@H]1OC(C(=O)N2CCOCC2)=C[C@H](C)[C@H]1CCCO", -9.37),
    ("Cc1ccc(S(=O)(=O)N2CCOCC2)cc1NC(=O)CSc1nnc(N)s1", -4.64),
    ("COc1ccc(/C=C2\\SC(=S)N(CC(=O)NNC(=O)c3ccncc3)C2=O)cc1", -5.15),
    ("CCn1c(N)c(Br)c(=O)[nH]c1=O", -8.78),
    ("COc1cc(CN2CC(C)CC(C)C2)cc([N+](=O)[O-])c1O (stereo not given)", 16.2),
    ("Cc1cc(C)cc(NC(=S)NCc2ccc(F)cc2)c1", 16.7),
    ("O=C(Cc1ccccc1)NCc1ccc(F)cc1", -4.83),
]

----------
test: Leishmania major promastigote growth inhibition, primary screen (AID 1063); settings: Leishmania major promastigotes, resazurin fluorescence viability; at 10 µM;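 further: promastigotes grown with compound for 44 hours at 28 °C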
Among all 200,000 compounds or so, about 18,000 (9%) were called active. No stated cut-off is given here; in the data, active means inhibition above about 50%; inactive means the rest. The full list was thinned out, with actives kept by preference.
Possible outcomes: t for active, f for inactive

# molecule, category-label
records = [
    ("CCOc1ccc(NC(=O)CC2C(=O)N(c3ccccc3)C(=O)N2CCOC)cc1 (centres undefined)", "f"),
    ("C=CCNC(=O)COC(=O)CNC(=O)c1cc(Cl)cc([N+](=O)[O-])c1", "f"),
    ("COc1ccc(CNc2c(CO)cnc3c2cnn3C)cc1", "f"),
    ("COC(=O)CN1C(=S)N(c2ccccc2)C(=O)C1CC(=O)Nc1ccc(Cl)cc1 (centres undefined)", "t"),
]

----------
assay: Leishmania major promastigote growth inhibition, primary screen (AID 1063); conditions: Leishmania major promastigotes, resazurin fluorescence viability; at 10 µM; stronger effect = higher value;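 further: promastigotes grown with compound for 44 hours at 28 °C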
Out of some 200,000 compounds screened, about 18,000 (9%) were called active. For the sample, actives were picked, then their nearest neighbours and some compounds at random.
# inhibition listing for each entry below
assay-metric: inhibition (%)

# molecule, measured-number
records = [
    ("Cc1ccc(Cl)cc1NC(=O)C1CCN(S(C)(=O)=O)CC1", 2.22),
    ("Cc1ccc(C(=O)NCC(=O)O)s1", -10.9),
    ("Cc1ccccc1-n1cc(CNC(=O)CC2C(=O)NCCN2C/C=C/c2ccccc2)cn1 (stereo not drawn)", -1.38),
    ("Cc1ccc(S(=O)(=O)N(NC2=NS(=O)(=O)c3ccccc32)C(=O)c2ccccc2)cc1", 53),
    ("O=C1CSC(c2ccccc2)N1c1nc(-c2ccc(Cl)cc2Cl)cs1 (stereo not drawn)", -6.37),
    ("CCc1cccc(C)c1NC(=S)N(CCCN1CCN(C)CC1)Cc1cccs1", 22.3),
    ("Cc1ccc(-n2c(SCC(=O)N3c4ccccc4Sc4ccccc43)nnc2-c2ccncc2)cc1", 62.6),
    ("CCOc1ccccc1-n1c(SCC(=O)NCc2ccco2)nnc1-c1ccncc1", 67.1),
    ("C/C(CC(=O)N1CCN(C=O)CC1)=N\\NC(=O)c1ccc(Br)cc1", -4.54),
    ("Cc1ccccc1NC(=S)N(CCCN1CCOCC1)Cc1cccs1", 61.8),
    ("CCOc1ccc2nc(Nc3nc4ccc(NC(C)=O)cc4s3)sc2c1", 72.1),
    ("CCCCC(=O)Nc1ccc2c(c1)OCCO2", 1.71),
    ("CC(C)CCNC(=O)c1cccnc1Sc1ccccc1", 32.8),
    ("Clc1ccc(-c2cc(C3CCNCC3)[nH]n2)c(Cl)c1", 94.3),
    ("CC(=O)Nc1ccc(S(=O)(=O)Nc2nc(-c3ccc(C(C)(C)C)cc3)cs2)cc1", 6.97),
    ("O=C(CCC(=O)OCc1ccc(Cl)cc1)Nc1ccccc1", -2.39),
    ("COc1cc(OC)cc(-c2nnc(N(C)C(=O)c3ccncc3)s2)c1", -3.83),
    ("O=C(CSc1nnc(-c2ccncc2)n1-c1ccc(Cl)cc1)Nc1ccc(C(=O)O)cc1", -7.6),
    ("Cc1c(C(=O)CN2CCOCC2)[nH]c2ccccc12", -3.24),
    ("Cc1cc(C)cc(OCC(=O)Nc2nc3ccc([N+](=O)[O-])cc3s2)c1", -2.84),
    ("CCOc1ccc2nc(SC(CC)C(=O)Nc3cc(C)on3)sc2c1 (stereo not drawn)", 6.15),
    ("CC(C)c1nc(CNC(=O)CC2C(=O)NCCN2Cc2ccoc2)cs1 (stereo not drawn)", -2.52),
    ("CN(C)c1ccc(/C=N/Nc2cc(N3CCOCC3)nc(N3CCOCC3)n2)cc1", -7.95),
    ("Cc1ccc(-c2nnc(SCC(=O)N/N=C/c3cccs3)n2-c2ccc(C)cc2)cc1", 32),
    ("N#Cc1ccccc1-n1c(N)c(C(=O)N2CCCC2)sc1=S", 52.1),
    ("O=C(NC1CCCCC1)c1cc([N+](=O)[O-])ccc1N1CCOCC1", -6.49),
    ("CC(Nc1ccccc1)c1cccnc1 (stereo not drawn)", 12.1),
    ("O=C(NCc1ccccc1Cl)C1CCCO1 (stereo not drawn)", -3.01),
    ("NS(=O)(=O)c1cccc(NC(=O)CN2CCCc3ccccc32)c1", -1.56),
    ("O=C(NCc1cccs1)c1cc(-c2ccccn2)nc2ccc(Br)cc12", -5.05),
    ("COc1ccc(C2C(C(=O)Nc3ccccc3OC)=C(C)Nc3nnnn32)c(OC)c1 (stereo not drawn)", 15.1),
    ("COc1cc(C2C(C(=O)Nc3ccccc3OC)=C(C)Nc3ncnn32)ccc1O (stereo not drawn)", -3.99),
    ("COCCCNC(=O)CNC(=S)N(Cc1cc(OC)c(OC)c(OC)c1)C1CCCC1", -3.29),
    ("CC(=O)Nc1ccc(-c2csc(NC(=O)Nc3ccccc3)n2)cc1", 58.2),
    ("Cc1ccc(-n2c(=O)c(C#N)cc3c(=O)n4ccccc4nc32)cc1C", 2.63),
    ("COc1cccc(-c2ccc(SCC(=O)N3CCN(c4ccccc4)CC3)nn2)c1", 4.58),
    ("CC1CCCN(C(C(=O)Nc2ccc(C(C)C)cc2)c2ccc3c(c2)OCO3)C1 (stereo not drawn)", 26.3),
    ("Cc1cc(C)c2nc(-c3cccnc3)cc(C(=O)Nc3ccc(S(=O)(=O)Nc4onc(C)c4C)cc3)c2c1", -3.47),
]
